# ASSAYED_SYSTEM: E. coli iPGM (Escherichia coli)
# Sequence (P37689 whole entry): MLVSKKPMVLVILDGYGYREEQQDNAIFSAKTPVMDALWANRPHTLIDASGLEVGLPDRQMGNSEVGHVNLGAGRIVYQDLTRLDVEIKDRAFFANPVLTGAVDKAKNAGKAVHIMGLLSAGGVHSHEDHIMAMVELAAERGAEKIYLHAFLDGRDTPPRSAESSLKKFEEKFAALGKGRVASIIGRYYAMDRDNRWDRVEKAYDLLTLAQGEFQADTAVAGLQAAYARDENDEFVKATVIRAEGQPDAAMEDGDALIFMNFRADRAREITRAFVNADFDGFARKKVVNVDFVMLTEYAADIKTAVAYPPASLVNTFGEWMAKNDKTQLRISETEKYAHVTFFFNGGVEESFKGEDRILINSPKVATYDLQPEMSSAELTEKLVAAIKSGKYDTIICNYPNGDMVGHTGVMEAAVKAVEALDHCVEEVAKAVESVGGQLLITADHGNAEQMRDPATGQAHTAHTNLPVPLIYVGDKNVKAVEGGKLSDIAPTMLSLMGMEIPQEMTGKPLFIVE
# ASSAY_OVERVIEW: biochemical
# TEST_CONTEXT: […]
RECORDED_ENDPOINT: IC50 (µM)
Give the quantity in µM, number only.

Query :: Identify measured IC50 obtained with E. coli iPGM (Escherichia coli) for CC(C)C[C@H](NC(=O)[C@H](Cc1ccc(O)cc1)NC(=O)[C@@H]1CSCC(=O)N[C@H](Cc2ccc(O)cc2)C(=O)N[C@@H](CCC(N)=O)C(=O)N[C@@H](Cc2ccc(O)cc2)C(=O)N2CCC[C@H]2C(=O)NCC(=O)N[C@@H](CC(=O)O)C(=O)N[C@@H](Cc2ccc(O)cc2)C(=O)N1)C(=O)N[C@@H](Cc1ccc(O)cc1)C(N)=O [Ce-2d D2Q] .
Result :: 8.04

Query :: Identify measured IC50 obtained with E. coli iPGM (Escherichia coli) for CC[C@H](C)[C@@H]1NC(=O)[C@H](Cc2ccc(O)cc2)NC(=O)[C@H](CC(=O)O)NC(=O)[C@@H](Cc2ccc(O)cc2)NC(=O)CSC[C@@H](C(=O)N[C@@H](Cc2ccc(O)cc2)C(=O)N[C@@H](CC(C)C)C(=O)N[C@@H](Cc2ccc(O)cc2)C(N)=O)NC(=O)[C@H](Cc2ccc(O)cc2)NC(=O)[C@H](CC(=O)O)NC(=O)CNC1=O [Ce-2d P4I] .
Result :: 21.9

Query :: Identify measured IC50 obtained with E. coli iPGM (Escherichia coli) for CC(C)C[C@H](NC(=O)[C@H](Cc1ccc(O)cc1)NC(=O)[C@@H]1CSCC(=O)N[C@H](Cc2ccc(O)cc2)C(=O)N[C@@H](CC(=O)O)C(=O)N[C@@H](Cc2ccc(O)cc2)C(=O)N2CCC[C@H]2C(=O)NCC(=O)N[C@@H](CC(=O)O)C(=O)N[C@@H](Cc2c[nH]cn2)C(=O)N1)C(=O)N[C@@H](Cc1ccc(O)cc1)C(=O)NCC(=O)N[C@H](C(=O)NO)[C@@H](C)O [Ce-1 NHOH] .
Result :: 8.97
